Test: COS7 lysate on small-molecule microarray, probe aHis, 635 nm (AID 1123);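 further: z-score combines 667nm fluorescence intensity with signal-to-noise per printed compound spot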
Conditions: COS7 cell lysate, fluorescence, higher = more signal
Result type: composite z-score
The reply should be a number, written without any unit.

[N-]=[N+]=Nc1ccccc1C[C@]1(C(=O)NCCN2CCOCC2)N=C(c2ccc(OCCCO)cc2)O[C@H]1c1ccccc1N=[N+]=[N-] : 2.84
CO[C@H]1O[C@H](CO)[C@@H](OC(=O)Nc2cccc(F)c2)[C@H](OC(=O)Nc2ccc3c(c2)OCO3)[C@H]1OC(=O)Nc1ccc2c(c1)OCO2 : 2.23
O=C(Nc1cc(Br)ccc1C(=O)NCc1cccc(O)c1)c1ccccc1 : 0.891
O=C1c2ccccc2[C@](Cc2ccccc2I)(C(=O)NCC(F)(F)F)[C@H](c2ccc(CO)cc2)N1Cc1ccccc1 : 2.19
COc1ccc([Si](C)(C)[C@@H]2[C@@H](CCO)O[C@]3(C(=O)N(Cc4cccc(N5C(=O)COc6ccccc65)c4)c4ccccc43)[C@H]2C)cc1 : 1.35
C=CCC(OC(C)=O)[C@@H]1[C@@H](N(Cc2ccc(-c3cccc(C(F)(F)F)c3)o2)C(=O)c2cccc3ccccc23)c2cc(OCCCO)ccc2N1C(=O)c1ccc(-c2ccccc2)cc1 (some centres not stated) : -0.647

Entry under test: COc1ccc(C#Cc2ccc3c(c2)[C@]2(C(=O)N3)[C@H](C(=O)O)[C@H]3C(=O)O[C@H](c4ccccc4)[C@H](c4ccccc4)N3[C@@H]2c2ccc(OCCO)cc2)cc1 . Its composite z-score was 1.84

----------
Test: compounds binding Alexa647 anti-His antibody – biochemical, small-molecule microarray, 635 nm fluorescence, artefact control for SMM control protein annotation, primary screen (AID 1128);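 further: score merges feature fluorescence with signal-to-noise for each printed compound spot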
Details: higher = more signal
Reported composite z-score values are given for each entry in this list.
Write the number on its own, no unit after it.

Consider the worked cases shown below.
CC1=C2[C@@H](CCc3ccccc3)OB(O)C[C@@H]2[C@@H]2C(=O)C=CC(=O)[C@@H]2C1 : 0.892
COc1ccc([Si](C)(C)[C@@H]2[C@@H](CC(=O)N(CCO)Cc3ccccc3)O[C@]3(C(=O)N(C)c4c(Br)cc(C)cc43)[C@H]2C)cc1 : 0.926
C=CC[C@@]1(C(=O)NCCN2CCOCC2)N=C(c2ccc(OCCCO)cc2)O[C@@H]1c1ccccc1 : 0.432

Recorded composite z-score (molecule COCCCNC(=O)[C@]1(Cc2ccccc2)N=C(c2ccc(OCCCO)cc2)O[C@@H]1c1ccccc1N=[N+]=[N-] ): 0.36

Value of composite z-score reported for the molecule CN(C)C(=O)[C@@]1(CCS(=O)(=O)c2ccccc2)N=C(c2ccc(OCCCO)cc2)O[C@H]1c1ccccc1CN=[N+]=[N-] is 1.78

# composite z-score of O=C(C=C(CC(O)c1cccc(Cl)c1)OCCF)OCCF (stereo not drawn) = -0.144

// composite z-score lookup, molecule = O=c1c2ccc(Br)cc2nc(-c2ccccc2)n1Cc1cccc(O)c1 , result: 0.741

Just so you know, measured composite z-score for CN(C)CCCCCCNC(=O)[C@@H]1C[C@@H]2C(=O)NCC(=O)N2[C@@H]1c1ccc(O)cc1 came out at 2.07

----------
Test: probe aXIP binding to arrayed compounds – biochemical, NeuroSMM set, 635/667 nm fluorescence, primary screen (AID 1119);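 further: probe is the protein aXip251-270 applied at 1 µg/mL to compound-printed slides; binding of probe to printed compounds measured as 667 nm fluorescence plus signal to noise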
Settings: small-molecule microarray, higher = more signal, called active from +8 up or from −8 down
Result type: composite Z-score
The reply should be a number, written without any unit.

Use the examples below as a reference point.
CCCCC(=C=CC[C@H](O)c1ccccc1OCCO)C[C@H](O)c1ccccn1 : -0.452
COC(=O)[C@H]1N=C(c2ccc(OCCCO)cc2)O[C@H]1c1ccccc1CN=[N+]=[N-] : -0.391
CC(C)CNC(=O)[C@@]1(C)c2ccccc2C(=O)N(Cc2ccccc2)[C@H]1c1ccc(CO)cc1 : 3.02

In plain terms, CN(C)C(=O)[C@@]1(Cc2ccccc2N=[N+]=[N-])N=C(c2ccc(OCCCO)cc2)O[C@H]1c1ccccc1N=[N+]=[N-] has a documented composite Z-score of 0.167

----------
Biological target: NADPH oxidase 4 (Homo sapiens) (UniProt Q9NPH5)
Sequence (Q9NPH5 whole entry, looked up): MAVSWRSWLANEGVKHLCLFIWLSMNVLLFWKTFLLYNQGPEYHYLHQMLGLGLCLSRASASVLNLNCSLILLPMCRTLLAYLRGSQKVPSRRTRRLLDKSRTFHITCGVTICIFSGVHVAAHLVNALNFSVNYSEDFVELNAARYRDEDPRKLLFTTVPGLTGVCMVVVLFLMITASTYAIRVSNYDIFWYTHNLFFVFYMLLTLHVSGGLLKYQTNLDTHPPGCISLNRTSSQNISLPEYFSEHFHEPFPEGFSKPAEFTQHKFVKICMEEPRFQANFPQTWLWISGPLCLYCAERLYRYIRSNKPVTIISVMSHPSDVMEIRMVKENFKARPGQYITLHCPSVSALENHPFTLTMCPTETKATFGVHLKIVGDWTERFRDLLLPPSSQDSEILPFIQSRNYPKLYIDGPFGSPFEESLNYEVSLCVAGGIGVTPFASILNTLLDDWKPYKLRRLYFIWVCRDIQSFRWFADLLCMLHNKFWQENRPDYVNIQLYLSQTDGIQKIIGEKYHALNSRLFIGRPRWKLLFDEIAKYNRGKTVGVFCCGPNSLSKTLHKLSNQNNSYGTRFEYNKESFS
Assay: compounds shifting NOX4 Amplex Red fluorescence – cell-based, HEK293-NOX4, tetracycline-induced, NOX inhibitor project, primary screen (AID 1160)
Conditions: HEK293-NOX4, Amplex Red H2O2 fluorescence, 45 min; higher = more signal, called active from +8 up or from −8 down
Result type: z-score
When you answer, write just the number.

Solved cases (5 shown):
COCCOC(=O)N1C(=O)[C@@]2(c3cc(C#CCCO)ccc31)[C@H](C(=O)N1CCc3cc(OC)c(OC)cc3C1)[C@H]1C(=O)O[C@H](c3ccccc3)[C@H](c3ccccc3)N1[C@@H]2c1ccc(OCCO)cc1 : 1.07
CN(C)C(=O)[C@@]1(CCS(=O)(=O)c2ccccc2)N=C(c2ccc(OCCCO)cc2)O[C@H]1c1ccccc1CN=[N+]=[N-] : 0.083
NC(=O)[C@@H]1[C@H]2C(=O)O[C@H](c3ccccc3)[C@H](c3ccccc3)N2[C@H](c2ccccc2OCCO)[C@@]12C(=O)Nc1ccc(C#CCCO)cc12 : 1.18
COC(=O)[C@]1(Cc2ccccc2CN=[N+]=[N-])N=C(c2ccc(OCCCO)cc2)O[C@@H]1c1ccccc1CN=[N+]=[N-] : -0.0356
NC(=O)NCC#Cc1ccc2c(c1)[C@]1(C(=O)N2)[C@H](c2ccc(OCCO)cc2)N2[C@H](c3ccccc3)[C@H](c3ccccc3)OC(=O)[C@H]2[C@@H]1C(=O)N1CCCCCCC1 : 1.15

CCOC(=O)C[C@H]1[C@H](OC(=O)Cc2ccc3c(c2)OCO3)[C@@H](NC(=O)c2ccccc2)c2cc(OCCCO)ccc2N1C(=O)c1ccccc1 yielded z-score of 0.759

// z-score value for COc1ccc([Si](C)(C)[C@@H]2[C@@H](CCO)O[C@]3(C(=O)N(Cc4cccc(N5C(=O)COc6ccccc65)c4)c4ccccc43)[C@H]2C)cc1 : 1.36

Entry C=CCOC(=O)[C@@H]1[C@H]2C(=O)O[C@H](c3ccccc3)[C@H](c3ccccc3)N2[C@H](c2ccc(OCCOC(=O)[C@@H]3C[C@@H]4C(=O)N[C@@H](CCCCNC(C)=O)C(=O)N4[C@@H]3c3ccc(O)cc3)cc2)[C@@]12C(=O)Nc1ccc(I)cc12 , z-score reported as 1.35

Reported z-score ( Cc1ccc(S[C@]2(C(=O)O)CC(=O)N(C3CCCCC3)[C@@H]2c2ccc(CO)cc2)cc1 ) = 0.585

The molecule listed as CCCN1C(=O)[C@@H]2Cc3c([nH]c4ccccc34)[C@@H](c3cccc(O)c3)N2C1=O has a reported z-score of -1.02

Entry CCOC(=O)C[C@H]1[C@H](OC(=O)Cc2ccc3c(c2)OCO3)[C@@H](NC(=O)c2ccccc2)c2cc(OCCCO)ccc2N1C(=O)c1ccc2ccccc2n1 , z-score reported as 1.16

response.value for COCCCNC(=O)[C@@]1(Cc2ccccc2N=[N+]=[N-])N=C(c2ccc(OCCCO)cc2)O[C@H]1c1ccccc1CN=[N+]=[N-] (field: z-score) = 0.7

Sample C=CCC(OC(C)=O)[C@@H]1[C@@H](N(Cc2ccc(-c3ccccc3)cc2)C(=O)Cc2ccc(OC)cc2)c2cc(OCCCO)ccc2N1C(=O)c1ccc(-c2ccccc2)cc1 (stereo not given in full) ; z-score observed: 0.878

Per the record, COc1ccc([Si](C)(C)[C@H]2[C@H](CCn3cc(CCO)nn3)O[C@@]3(C(=O)N(Cc4cccc(N5C(=O)c6cccc7cccc5c67)c4)c4ccccc43)[C@@H]2C)cc1 has z-score of 1.74

Field z-score (entry C=CCOC(=O)[C@H]1[C@@H]2C(=O)O[C@@H](c3ccccc3)[C@@H](c3ccccc3)N2[C@@H](c2ccc(OCCOC(=O)[C@H]3C[C@H]4C(=O)N[C@@H](CCCCN(C)C)C(=O)N4[C@H]3c3ccc(O)cc3)cc2)[C@]12C(=O)Nc1ccccc12 ) reads 1.05

Summary for this molecule, C#CCOC(=O)N[C@H](C=CCCCC)c1ccccc1 : z-score is -0.194

// sample C=CCN1C(=O)[C@@]2(O[C@@H](CCn3cc([C@H](O)c4ccccc4)nn3)[C@H]([Si](C)(C)c3ccc(OC)cc3)[C@H]2C)c2cc(NC(=O)c3ccc(OC)cc3)ccc21 , its z-score was 0.863

The measured z-score associated with COC(=O)[C@]1(Cc2ccccc2N=[N+]=[N-])N=C(c2ccc(OCCCO)cc2)O[C@@H]1c1ccccc1 reads -0.013

get_value(item= NC(=O)NCC#Cc1ccc2c(c1)[C@]1(C(=O)N2)[C@H](c2ccc(O)cc2)N2[C@H](c3ccccc3)[C@H](c3ccccc3)OC(=O)[C@H]2[C@@H]1C(N)=O , readout=z-score) returns -0.571

Memo: O=C1O[C@H](c2ccccc2)[C@H](c2ccccc2)N2[C@H]1[C@@H](C(=O)N1CCCCCCC1)[C@]1(C(=O)Nc3ccc(C#CCCO)cc31)[C@H]2c1ccc(OCCO)cc1 , reported z-score: 0.597

Item: COC(=O)C(CC#Cc1ccc2c(c1)[C@]1(C(=O)N2)[C@H](c2ccc(O)cc2)N2[C@H](c3ccccc3)[C@H](c3ccccc3)OC(=O)[C@H]2[C@@H]1C(=O)O)C(=O)OC | z-score: 0.0467

Memo: CC1(C)[C@@H]2CC(C(O)C3C=CC4C(=O)N(c5ccccc5)C(=O)C4N3Nc3ccccc3F)=C[C@@H]1C2 (stereo not given in full) , reported z-score: 0.0669

The molecule listed as O=C1NC(=O)C2C1C=CC(C(O)c1ccc(-c3ccccc3)s1)N2Nc1ccccn1 (stereo not given) shows z-score equal to -2.3

Field z-score (entry COc1ccccc1CN1C(=O)c2ccccc2[C@](Cc2ccccc2I)(C(=O)NCCN2CCOCC2)[C@@H]1c1ccc(CO)cc1 ) reads 0.454

// z-score lookup, molecule = C=C(/C(=C/C[C@@H](OC(=O)c1ccncc1)c1ccccc1OCCO)c1cnc2ccccc2c1)C(C)C , result: -1.11
